Each item that follows carries a reported Percentage inhibition of kinase enzyme activity.
STUDY SYSTEM: RON (Homo sapiens)
Construct: purchased Carna Biosciences
Sequence (Q04912 25-1400): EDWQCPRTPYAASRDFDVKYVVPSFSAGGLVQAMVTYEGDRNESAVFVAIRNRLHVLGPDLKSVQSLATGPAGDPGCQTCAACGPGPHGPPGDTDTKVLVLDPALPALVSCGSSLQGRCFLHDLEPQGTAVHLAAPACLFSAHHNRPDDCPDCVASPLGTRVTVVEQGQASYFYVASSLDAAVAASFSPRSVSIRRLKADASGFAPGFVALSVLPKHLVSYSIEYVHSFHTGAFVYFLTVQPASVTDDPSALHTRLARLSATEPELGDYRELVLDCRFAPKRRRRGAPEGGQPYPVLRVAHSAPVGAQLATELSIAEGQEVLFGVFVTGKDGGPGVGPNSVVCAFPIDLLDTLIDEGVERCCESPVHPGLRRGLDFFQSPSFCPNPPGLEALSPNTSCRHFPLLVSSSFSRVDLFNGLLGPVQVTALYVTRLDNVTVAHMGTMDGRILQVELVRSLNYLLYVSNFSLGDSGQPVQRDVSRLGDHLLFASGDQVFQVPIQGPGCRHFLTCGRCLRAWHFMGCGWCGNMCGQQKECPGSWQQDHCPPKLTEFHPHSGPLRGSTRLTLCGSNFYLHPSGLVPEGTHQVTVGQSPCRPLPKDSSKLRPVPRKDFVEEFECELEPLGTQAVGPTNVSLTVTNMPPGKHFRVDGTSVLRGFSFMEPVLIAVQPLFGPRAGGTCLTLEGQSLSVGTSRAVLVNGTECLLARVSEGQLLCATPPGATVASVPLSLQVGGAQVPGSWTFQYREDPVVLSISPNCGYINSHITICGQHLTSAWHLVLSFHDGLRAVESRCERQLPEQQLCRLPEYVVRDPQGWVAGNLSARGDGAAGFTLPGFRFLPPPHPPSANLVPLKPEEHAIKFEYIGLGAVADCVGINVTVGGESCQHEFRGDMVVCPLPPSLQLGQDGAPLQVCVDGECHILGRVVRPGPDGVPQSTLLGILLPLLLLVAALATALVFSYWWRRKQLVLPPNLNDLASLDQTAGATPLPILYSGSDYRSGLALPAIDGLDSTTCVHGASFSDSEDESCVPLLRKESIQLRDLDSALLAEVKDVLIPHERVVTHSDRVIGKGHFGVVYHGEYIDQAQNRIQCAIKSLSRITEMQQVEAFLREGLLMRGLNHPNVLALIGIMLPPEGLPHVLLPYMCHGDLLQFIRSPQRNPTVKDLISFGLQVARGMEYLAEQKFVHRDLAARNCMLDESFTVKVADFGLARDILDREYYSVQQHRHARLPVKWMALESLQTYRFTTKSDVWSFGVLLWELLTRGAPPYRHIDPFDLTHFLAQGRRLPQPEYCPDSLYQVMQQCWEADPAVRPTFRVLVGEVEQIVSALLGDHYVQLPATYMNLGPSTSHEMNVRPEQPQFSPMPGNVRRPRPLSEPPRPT
ASSAY TEXT: Kinase panel profiling at 1 µmol/L (mobility shift assay, Carna)
Format: biochemical
RECORDED CONDITIONS: 1 µmol/L of BTK inhibitor
Give your result in % as a bare value.

COc1ccc(F)cc1C(=O)NCc1ccc(-c2nn([C@@H](C)C(F)(F)F)c(N)c2C(N)=O)cc1 [pirtobrutinib]	6.55
O=C(c1ccc(Oc2ccccc2)cc1Cl)c1c[nH]c2ncnc(N[C@@H]3CC[C@@H](CO)OC3)c12 [nemtabrutinib]	33.63

Qu. What measured Percentage inhibition of kinase enzyme activity goes with C=CC(=O)N1CCC[C@@H](n2nc(-c3ccc(Oc4ccccc4)cc3)c3c(N)ncnc32)C1 [ibrutinib] ?
Ans. 6.98

Qu. Moving on to the next compound: CC#CC(=O)N1CCC[C@H]1c1nc(-c2ccc(C(=O)Nc3ccccn3)cc2)c2c(N)nccn12 [acalabrutinib]
Ans. 7.68
